Origin of measurements: patent US20100184813A1

Target chain: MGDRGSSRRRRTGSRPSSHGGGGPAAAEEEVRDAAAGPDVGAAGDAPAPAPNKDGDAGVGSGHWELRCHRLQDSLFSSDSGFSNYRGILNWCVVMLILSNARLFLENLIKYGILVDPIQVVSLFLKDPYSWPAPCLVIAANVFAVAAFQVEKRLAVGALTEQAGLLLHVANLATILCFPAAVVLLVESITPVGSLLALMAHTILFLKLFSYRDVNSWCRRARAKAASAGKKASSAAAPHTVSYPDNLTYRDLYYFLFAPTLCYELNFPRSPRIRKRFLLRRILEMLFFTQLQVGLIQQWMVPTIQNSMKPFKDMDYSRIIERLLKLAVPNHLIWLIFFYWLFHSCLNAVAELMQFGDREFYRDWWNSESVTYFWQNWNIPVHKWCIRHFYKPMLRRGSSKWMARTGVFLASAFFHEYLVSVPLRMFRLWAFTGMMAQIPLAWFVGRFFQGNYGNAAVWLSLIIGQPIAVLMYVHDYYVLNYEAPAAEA
Endpoint: IC50 (nM)

INSERT INTO results (compound, endpoint, reported_result) VALUES
  ('O=C(Nc1ccc([C@H]2CC[C@H](C(=O)O)CC2)cc1F)c1nnc(Nc2cc(F)c(F)cc2F)o1 [Example 6]', 'IC50', 3.7),
  ('O=C(Nc1ccc([C@H]2CC[C@H](C(=O)O)CC2)cc1F)c1nnc(Nc2ccc(C(F)(F)F)cc2)o1 [Example 1]', 'IC50', 16),
  ('O=C(Nc1ccc([C@H]2CC[C@@H](C(=O)O)CC2)cc1F)c1nnc(Nc2ccc(F)c(F)c2)o1 [Example 7]', 'IC50', 9.2);
